Entries below carry reported pKi on Adenosine receptor A2a (Homo sapiens, UniProt P29274).
Sequence (P29274 whole entry): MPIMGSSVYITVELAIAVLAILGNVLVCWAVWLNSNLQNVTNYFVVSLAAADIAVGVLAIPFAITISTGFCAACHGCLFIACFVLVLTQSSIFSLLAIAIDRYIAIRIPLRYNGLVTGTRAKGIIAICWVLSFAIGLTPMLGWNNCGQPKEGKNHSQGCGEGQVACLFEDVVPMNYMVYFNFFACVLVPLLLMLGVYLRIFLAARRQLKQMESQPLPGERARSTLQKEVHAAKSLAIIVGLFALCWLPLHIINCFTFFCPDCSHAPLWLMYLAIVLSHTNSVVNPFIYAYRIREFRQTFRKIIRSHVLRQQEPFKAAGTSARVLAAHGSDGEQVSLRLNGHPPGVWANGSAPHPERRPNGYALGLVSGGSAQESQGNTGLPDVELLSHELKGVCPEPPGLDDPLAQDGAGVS
pKi: −log10 of the molar value.

Observe how each entry below is paired with its result.
>  <compound>
CC1CN2C(=O)N(Cc3ccccc3)c3nc(-c4cc(OCc5ccccc5)nn4C)[nH]c3C2=N1 (racemic)

>  <observed>
5.70

$$$$
>  <compound>
C=CCN1C(=O)N2CC(CC)N=C2c2[nH]c(-c3cc(OCc4ccccc4)nn3C)nc21 (racemic)

>  <observed>
< 5.30

$$$$
>  <compound>
C=CCN1C(=O)N2C[C@@H](C)N=C2c2[nH]c(-c3cc(C)nn3C)nc21

>  <observed>
< 5.30

$$$$

Short answer please: pKi, Adenosine receptor A2a (Homo sapiens, UniProt P29274), entry C=CCN1C(=O)N2CC(CC)N=C2c2[nH]c(-c3cc(C)nn3C)nc21 (racemic)
< 5.30

// provenance: ChEMBL document CHEMBL1799944
